Where do these numbers come from? They come from the supplement of paper PMC4862054.

System: CAL-85-1
Experiment: normalised response (% of control), CellTiter-Glo; higher = more viable cells (100 = DMSO, 0 = benzethonium chloride kill control)
Details: incubation time: 72 h
Readout type: normalised response (%)
The answer is to be given in %; state only the numeric part.

{"Compound": "CNC(=O)c1cc(Oc2ccc(NC(=O)Nc3cc(C(C)(C)C)nn3-c3ccc4ncccc4c3)c(F)c2)ccn1 [Rebastinib] (1 nM)", "Recorded measurement": 99.5}
{"Compound": "N#Cc1ccc(C(c2ccc(C#N)cc2)n2cncn2)cc1 [Letrozole] (10 nM)", "Recorded measurement": 99.9}
{"Compound": "CCCS(=O)(=O)Nc1ccc(F)c(C(=O)c2c[nH]c3ncc(-c4ccc(Cl)cc4)cc23)c1F [Vemurafenib] (1000 nM)", "Recorded measurement": 92.3}
{"Compound": "CCc1cncnc1N1CCN(Cc2nc3ccc(C(F)(F)F)cc3[nH]2)CC1 (1000 nM)", "Recorded measurement": 97.7}
{"Compound": "O=C(O)C(=O)O.[NH-][C@@H]1CCCC[C@H]1[NH-].[Pt+2] [Oxaliplatin] (1 nM)", "Recorded measurement": 91.3}

So, O=C(/C=C/c1cccnc1)NCCCCC1CCN(C(=O)c2ccccc2)CC1 [Daporinad] (100 nM) ? Its normalised response was 16
